# average injury rating, V8 Growth Stage, 2x 2,4-D listing for each entry below
Test system: F1 hybrid maize plants
test.name: efficacy field trial for 2,4-D tolerance
Type: in vivo
measurement.context: scale 0 to 100; 2 lb ae/acre at VE-V2, V4, V8; with CTP unless label says no CTP
Experimental: Separate trait efficacy field trials for quizalofop-P and 2,4-D were conducted at two locations cach with F1 hybrid transgenic plants produced by crossing an inbred plant containing maize event MON89034 with an R1 plant containing MON-HT55 (with a CTP), MON-HTI (with or without a CTP), MON-HT2 (with or without a CTP), MON-HT3 (with a CTP), MON-HT4 (with a CTP), MON-HT5 (with a CTP), MON-HT6 (with a CTP), or MON-HT7 (with a CTP). […]
Just the number.

molecule: MON-HT4: engineered oxygenase protein, amino acid sequence SEQ ID NO:25 (protein) MHAALTPLTNKYRFIDVQPLTGVLGAEITGVDLREPLDDSTWNEILDAFHTYQVIYFPGQAITNEQHIAFSRRFGPVDPVPLLKSIEGYPEVQMIRREANESGRVIGDDWHTDSTFLDAPPAAVVMYAREVPPYGGDTGFLSMYTAWETLSPTMQATIEGLNVVHSATRVFGSLYQAQNRRYSNTSVKVMDVDAGDRETVHPLVVSHPVTGRRALYCNQVYCQRIEGMTDAESKSLLQFLYEHATKFDFTCRVRWKKDQVLVWDNLCTMHRAVPDYAGKFRYLTRTTVAGDKPSR
val: 2.0

Q: Form field: reported average injury rating, V8 Growth Stage, 2x 2,4-D of MON-HT7: engineered oxygenase protein, amino acid sequence SEQ ID NO:34 (protein) MHAALTPLTNKYRFIDVQPLTGVLGAEITGVDLREPLDDSTWNEILDAFHTYQVIYFPGQAITNEQHIAFSRRFGPVDPVPLLKSIEGYPEVQMIRREANESGRVIGDDWHADSTFLDAPPAAVVMRAIEVPEYGGDTGFLSMYSAWETLSPTMQATIEGLNVVHSATKVFGSLYQATNWRFSNTSVKVMDVDAGDRETVHPLVVTHPVTGRRALYCNQVYCQKIQGMTDAESKSLLQFLYEHATKFDFTCRVRWKKDQVLVWDNLCTMHRSVPDYAGKFRYLTRTTVAGDKPSR
Ans: 2.0
